# protocol.notes: Paclitaxel pharmacokinetics in rats after single oral dose with Compound A
# measurement.context: rat, in vivo, 40 mg/kg
endpoint.label: Tmax (h)
Enter your answer as a number in h; do not include the unit.

Please fill in: Tmax reported for `CC(=O)O[C@H]1C(=O)[C@@]2(C)[C@H]([C@H](OC(=O)c3ccccc3)[C@]3(O)C[C@H](OC(=O)[C@H](O)[C@@H](NC(=O)c4ccccc4)c4ccccc4)C(C)=C1C3(C)C)[C@]1(OC(C)=O)CO[C@@H]1C[C@@H]2O` = 1.5

* * *

# protocol.notes: clinical
# measurement.context: human, in vivo, po, 60 mg/m2
endpoint.label: AUC(0-t)
Answer format reminder: number followed by unit.

Form: molecule = `CC(=O)O[C@H]1C(=O)[C@@]2(C)[C@H]([C@H](OC(=O)c3ccccc3)[C@]3(O)C[C@H](OC(=O)[C@H](O)[C@@H](NC(=O)c4ccccc4)c4ccccc4)C(C)=C1C3(C)C)[C@]1(OC(C)=O)CO[C@@H]1C[C@@H]2O` ; AUC(0-t) = 584 ng·h/mL

* * *

# protocol.notes: clinical
# measurement.context: human, in vivo, po, 240 mg/m2
endpoint.label: MRT inf (h)
Respond numerically; units are h and should not be typed.

MRT inf in this record for `CC(=O)O[C@H]1C(=O)[C@@]2(C)[C@H]([C@H](OC(=O)c3ccccc3)[C@]3(O)C[C@H](OC(=O)[C@H](O)[C@@H](NC(=O)c4ccccc4)c4ccccc4)C(C)=C1C3(C)C)[C@]1(OC(C)=O)CO[C@@H]1C[C@@H]2O` : 23.4

* * *

# protocol.notes: clinical
# measurement.context: human, in vivo, po, 300 mg/m2
endpoint.label: half-life (h)
Your answer is read as h, so omit the unit and give the number.

Lab note: `CC(=O)O[C@H]1C(=O)[C@@]2(C)[C@H]([C@H](OC(=O)c3ccccc3)[C@]3(O)C[C@H](OC(=O)[C@H](O)[C@@H](NC(=O)c4ccccc4)c4ccccc4)C(C)=C1C3(C)C)[C@]1(OC(C)=O)CO[C@@H]1C[C@@H]2O` gave half-life of 21.2

Where these numbers come from: patent US20180207148A1
